test: Inhibition of ROS1-S1986F-G2032R-L2086F mutant/CD74 (unknown origin) expressed in mouse BaF3 cells; type: cell-based, Homo sapiens
Reported IC50 values are given for each entry in this list.

Study these solved cases before continuing.
                            molecule_smiles  result_value
0  C[C@H]1CNC(=O)c2cnn3ccc(nc23)N[C@H](C)c2cc(F)ccc2O1     > 2000 nM
1  COc1cc(N2CCC(N3CCN(C)CC3)CC2)ccc1Nc1ncc(Cl)c(Nc2ccccc2P(C)(C)=O)n1     > 2000 nM

# next compound below
// query Sample C[C@H]1Oc2cc(cnc2N)-c2c(nn(C)c2C#N)CN(C)C(=O)c2ccc(F)cc21 — what was its IC50?
// result > 2000 nM
